- System Under Test: NHERF2_2, Q15599
- Sequence (Q15599 142-238): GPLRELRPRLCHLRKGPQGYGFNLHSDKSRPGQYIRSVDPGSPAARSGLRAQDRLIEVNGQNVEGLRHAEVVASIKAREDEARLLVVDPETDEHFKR
- Experimental Protocol: holdup assay
- Design: key: below the threshold = too weak to quantify, mostly under pKd 3.1 to 4
- Setup Conditions: plain residues with an end cap or a label only (N-terminal biotin on a linker: ado-ado)
Value Type: pKd

Guide cases for pKd, answers given:
QGPVETESVV [SLC45A4, Q5BKX6] = 3.63
SNAGNTATKA [NOSTRIN, Q8IVI9] = below the threshold
PPYRHRNTVV [ERBB4, Q15303] = below the threshold
PDGQCTVTEV [RNF146, Q9NTX7] = 3.89
RKPKPSSSCC [RAB9A, P51151] = below the threshold

Look up pKd for this binder: PAPSSGKDYV [CLDN1, O95832]
below the threshold

And then PLSPEQPTKL [TRIM50, Q86XT4] , what is it?
3.86

And then HLRARKSEWV [GJD4, Q96KN9] , what is it?
below the threshold
